// data source = patent US4443436A

- System: Streptococcus pyogenes C203
- TEST: MIC, standard agar-dilution assay, Streptococcus pyogenes C203
- Assay type: cell-based
- TEST PARAMETERS: Streptococcus pyogenes C203; agar dilution
METRIC NAME: MIC (µg/mL)
Output spec: scalar in µg/mL, unitless text.

Below, each entry is followed by its recorded MIC result.
- COMPOUND: "CCC1OC(=O)CC(O)C(C)C(OC2OC(C)C(O)C(N(C)C)C2O)C(CCOc2ccc(-c3ccccc3)cc2)CC(C)C(=O)C=CC(C)=CC1COC1OC(C)C(O)C(OC)C1OC (stereo not shown) [Compound 41, 20-DH-20-O-(p-Phenylphenyl)desmycosin]"
  OBS VALUE: 0.25
- COMPOUND: "CCC(=O)OC1C(OC2C(CCCl)CC(C)C(=O)C=CC(C)=CC(COC3OC(C)C(O)C(OC)C3OC)C(CC)OC(=O)CC(O)C2C)OC(C)C(OC2CC(C)(O)C(O)C(C)O2)C1N(C)C (stereo not shown) [Compound 63, 20-DH-DO-20-Chloro-2'-O-propionyltylosin]"
  OBS VALUE: 0.5
- COMPOUND: "CCC1OC(=O)CC(O)C(C)C(OC2OC(C)C(O)C(N(C)C)C2O)C(CCOc2cc(Cl)cc(Cl)c2)CC(C)C(=O)C=CC(C)=CC1COC1OC(C)C(O)C(OC)C1OC (stereo not shown) [Compound 40]"
  OBS VALUE: 0.12

// below: MIC requested for another compound
Give its MIC value. Item: CCC1OC(=O)CC(O)C(C)C(OC2OC(C)C(O)C(N(C)C)C2O)C(CCOc2nnc(-c3ccccc3)c(-c3ccccc3)n2)CC(C)C(=O)C=CC(C)=CC1COC1OC(C)C(O)C(OC)C1OC (stereo not shown) [Compound 50]
0.5
